System: SK-MEL-5 melanoma
Experiment: NCI-60 one-dose screen, 48 h
Conditions: 10 µM unless noted
Protocol: Growth inhibition of the SK-MEL-5 human tumor cell line is measured as a screen for anti-cancer activity. Cells are grown in 96 well plates and exposed to the test compound for 48 hours. Compounds are tested at a single concentration, which is 10^-5 M for most compounds. The reported endpoint is percent growth (GI% or GIPRCNT), where numbers from 0 - 100% represent growth inhibition, and numbers from -100% - 0 represent cell death. For example, a value of 40 represents 60% growth inhibition. […]
The panel holds about 83,000 compounds, 20% with a hit somewhere; the sample as a whole holds those more often. Calls of active or inactive are those of the source. Rule for the calls: active = growth percent below 10; inactive = the rest.
Outcome codes: YES for active, NO for inactive

[
  {
    "compound": "CCc1nc2cc(F)c(/C=C/C(=O)NO)cc2c(=O)n1CCc1ccccc1",
    "answer.label": "YES"
  },
  {
    "compound": "CC(C)NC[C@@H](C(=O)N1CCN(c2ncnc3c2[C@H](C)C[C@H]3O)CC1)c1ccc(Cl)cc1",
    "answer.label": "NO"
  },
  {
    "compound": "COc1ccc(C2CC(=O)c3c(O)c(OC)c(OC)c(OC)c3O2)c(O)c1 (stereo not drawn)",
    "answer.label": "NO"
  },
  {
    "compound": "NC[C@@](O)(c1ccc(Cl)cc1)c1ccc(-c2cn[nH]c2)cc1",
    "answer.label": "NO"
  },
  {
    "compound": "C/C(=N\\NC(=O)Cn1c(-c2ccc(S(C)(=O)=O)cc2)nc2ccccc21)c1ccc(Cl)cc1",
    "answer.label": "NO"
  },
  {
    "compound": "Oc1ccc(C(c2ccc(O)cc2)C(Cl)(Cl)Cl)cc1",
    "answer.label": "NO"
  },
  {
    "compound": "COC(=O)[C@H](Cc1ccc(O)cc1)NC(=O)[C@@H](OC)[C@@H]1Cc2cc3cc(OC4CC(OC5CC(O)C(O)C(C)O5)C(O)C(C)O4)c(C)c(O)c3c(O)c2C(=O)[C@H]1OC1CC(OC2CC(OC3CC(C)(O)C(O)C(C)O3)C(O)C(C)O2)C(O)C(C)O1 (stereo partly drawn)",
    "answer.label": "YES"
  },
  {
    "compound": "C=CC(=O)N1CCC[C@H](n2c(=O)n(-c3ccc(Oc4ccccc4)cc3)c3c(N)ncnc32)C1",
    "answer.label": "NO"
  }
]

----------
System: UACC-62 melanoma
Experiment: NCI-60 one-dose screen, 48 h
Details: 10 µM unless noted
Method: Growth inhibition of the UACC-62 human tumor cell line is measured as a screen for anti-cancer activity. Cells are grown in 96 well plates and exposed to the test compound for 48 hours. Compounds are tested at a single concentration, which is 10^-5 M for most compounds. The reported endpoint is percent growth (GI% or GIPRCNT), where numbers from 0 - 100% represent growth inhibition, and numbers from -100% - 0 represent cell death. For example, a value of 40 represents 60% growth inhibition. […]
Compounds without any hit were thinned out: in the full panel of roughly 83,000, 20% have a hit. Active and inactive are the calls of the source. The calls were made as follows: active = growth percent below 10; inactive = the rest.
Outcome codes: active, inactive

[
  {
    "compound": "COc1cc2c(cc1OCCCCCCN1CCN(c3ncnc4ccccc34)CC1)N=CC1CCCN1C2=O (stereo not given)",
    "answer.label": "active"
  },
  {
    "compound": "Cc1ccc(NC(=O)c2ccc(CN3CC[C@H](N(C)C)C3)c(C(F)(F)F)c2)cc1Nc1nccc(-c2cncnc2)n1",
    "answer.label": "active"
  },
  {
    "compound": "CCCCOc1nc2cc(Cl)ccc2cc1/C=C/c1cc(/C=C/c2cc3ccc(Cl)cc3nc2OCCCC)n(-c2ccccc2)n1",
    "answer.label": "inactive"
  },
  {
    "compound": "c1cc(OCCN2CCCCC2)cc(-c2n[nH]c3ccc(-c4ncn[nH]4)cc23)c1",
    "answer.label": "inactive"
  },
  {
    "compound": "Cc1ccc(-[n+]2c3cc(N)c(C)cc3nc3cc(C)c(Nc4ccccc4)cc32)cc1",
    "answer.label": "active"
  },
  {
    "compound": "CC/C(=C(/c1ccc(Cl)cc1)c1ccc(OCCN2CCCCC2)cc1)c1ccc(Cl)cc1",
    "answer.label": "inactive"
  },
  {
    "compound": "COC(=O)[C@]12CC[C@@H](C)[C@H](C)[C@@H]1C1=CC[C@@H]3[C@@]4(C)C[C@@H](OC(=O)/C=C/c5ccccc5)[C@H](O)[C@@](C)(CO)[C@@H]4[C@H](O)C[C@@]3(C)[C@]1(C)CC2",
    "answer.label": "inactive"
  },
  {
    "compound": "O=C(O)c1ccc(Nc2ncc3c(n2)-c2ccc(Cl)cc2C(c2c(F)cccc2F)=NC3)cc1",
    "answer.label": "inactive"
  },
  {
    "compound": "CC(CCCC(=O)O)c1ccoc1 (stereo not given)",
    "answer.label": "inactive"
  },
  {
    "compound": "Cc1c(Cn2c(C)nc3c(C(=O)O)cc(N4CCOCC4)cc32)cccc1C(F)(F)F",
    "answer.label": "inactive"
  },
  {
    "compound": "CC(C)c1cc(CNc2nc(Nc3cc(C4CC4)[nH]n3)cc(N3CCN(C)CC3)n2)on1",
    "answer.label": "active"
  },
  {
    "compound": "NC1=Nc2cc(OCCCN3Cc4ccccc4C3)c(OCC3CC3)cc2C12CCCC2",
    "answer.label": "inactive"
  },
  {
    "compound": "Cn1cnc2c(F)c(Nc3ccc(Br)cc3F)c(C(=O)NOCCO)cc21",
    "answer.label": "active"
  },
  {
    "compound": "C=CCC(=O)N[C@H](/C=C/C(=O)O)Cc1ccc(-c2cc(Cl)cc(Cl)c2)cc1",
    "answer.label": "inactive"
  },
  {
    "compound": "CN1CC[C@H](c2c(O)cc(O)c3c(=O)cc(-c4ccccc4Cl)oc23)[C@H](O)C1",
    "answer.label": "active"
  },
  {
    "compound": "O=c1[nH]c([C@@H]2CCCN2)nc2c1oc1ccc(Cl)cc12",
    "answer.label": "inactive"
  },
  {
    "compound": "Cn1cnc2c(F)c(Nc3ccc(Br)cc3Cl)c(C(=O)NOCCO)cc21",
    "answer.label": "active"
  },
  {
    "compound": "COC[C@@H](C)n1c(C2CCOCC2)nc2c1C1C=C(OC)C(c3c(C)noc3C)=CC1N=C2 (stereo not given in full)",
    "answer.label": "inactive"
  },
  {
    "compound": "CN(C[C@@H]1COCCO1)S(=O)(=O)Nc1ccc2ccc3ncc(-c4cnn(C)c4)cc3c(=O)c2c1",
    "answer.label": "inactive"
  },
  {
    "compound": "CCN1/C(=C/C=C/c2n(-c3ccccc3)c3ccc(-c4nc5ccccc5s4)cc3[n+]2CC)N(c2ccccc2)c2ccc(-c3nc4ccccc4s3)cc21",
    "answer.label": "inactive"
  },
  {
    "compound": "CC(N)C(Cc1ccccc1)c1ccc(Cl)cc1 (stereo not given)",
    "answer.label": "inactive"
  },
  {
    "compound": "C[C@@H](Oc1cc(-c2cnn(C3CCNCC3)c2)cnc1N)c1c(Cl)ccc(F)c1Cl",
    "answer.label": "active"
  },
  {
    "compound": "CO[C@H]1C[C@@H]2CC[C@@H](C)[C@@](O)(O2)C(=O)C(=O)N2CCCC[C@H]2C(=O)O[C@H]([C@H](C)C[C@@H]2CC[C@@H](O)[C@H](OC)C2)CC(=O)[C@H](C)/C=C(\\C)[C@@H](O)[C@@H](OC)C(=O)[C@H](C)C[C@H](C)\\C=C/C=C/C=C/1C",
    "answer.label": "inactive"
  },
  {
    "compound": "C=C1C(=O)O[C@H]2[C@H]1CC/C(C=Nc1c(N)cc(C(F)(F)F)cc1C(F)(F)F)=C\\CC[C@@]1(C)O[C@@H]21",
    "answer.label": "active"
  },
  {
    "compound": "Cc1cn(-c2cc(NC(=O)c3ccc(C)c(Nc4nccc(-c5cccnc5)n4)c3)cc(C(F)(F)F)c2)cn1",
    "answer.label": "active"
  },
  {
    "compound": "N#Cc1c(NC(=O)c2ccco2)[n+]([O-])c2cc(F)c(F)cc2[n+]1[O-]",
    "answer.label": "inactive"
  },
  {
    "compound": "CNC(=O)c1cc(Oc2cccc3nc(Nc4ccc(Oc5ccccc5)cc4)ccc23)ccn1",
    "answer.label": "inactive"
  },
  {
    "compound": "COc1cc2c(Oc3ccc(NC(=O)C4(C(=O)Nc5ccc(F)cc5)CC4)cc3F)ccnc2cc1OCCCN1CCOCC1",
    "answer.label": "active"
  },
  {
    "compound": "CCCCCCCC(=O)SCC/C=C/[C@@H]1CC(=O)NCc2cc(ccn2)C2=N[C@@](C)(CS2)C(=O)N[C@@H](C(C)C)C(=O)O1",
    "answer.label": "active"
  },
  {
    "compound": "CCOc1ccc(N=C(C)Nc2ccc(OCC)cc2)cc1",
    "answer.label": "inactive"
  },
  {
    "compound": "Nc1nc(Nc2ccccc2)c(C=Nc2ccccc2)c(=O)[nH]1",
    "answer.label": "inactive"
  },
  {
    "compound": "Cc1cc([C@@H](C)Nc2ccccc2C(=O)O)c2nc(N3CCOCC3)cc(=O)n2c1",
    "answer.label": "inactive"
  },
  {
    "compound": "O=C1CC(c2ccc(Cl)cc2)c2ncn(-c3cccc(Cl)c3)c2N1 (stereo not given)",
    "answer.label": "inactive"
  },
  {
    "compound": "COCC(=O)NC/C=C/c1ccc2ncnc(Nc3ccc(Oc4ccc(C)nc4)c(C)c3)c2c1",
    "answer.label": "active"
  },
  {
    "compound": "O=[N+]([O-])c1cc(Br)cc2c1[nH]c1ccc(Br)cc12",
    "answer.label": "inactive"
  }
]

Values were extracted from PubChem BioAssay (NCI).
